- Tested on: STEME (common chickweed)
- testDescription: Pre-emergence herbicidal activity, cool season
- Assay type: in vivo, Stellaria media
- conditions: lowest tested rate with 80% or greater inhibition; rates 300, 100, 30, 10 g/ha; about 14 days

>  <compound>
C#CCN(C)C(=O)n1cnc(S(=O)(=O)C(F)(F)SCC)n1 [Example 54]

>  <Pre-emergence activity GR80, STEME>
[empty]

$$$$
>  <compound>
C=CCN(C)C(=O)n1cnc(S(=O)(=O)C(F)(F)C(F)(F)Br)n1 [Example 77]

>  <Pre-emergence activity GR80, STEME>
[empty]

$$$$
>  <compound>
CCN(CC)C(=O)n1cnc(S(=O)(=O)C(F)(F)SCCOC(C)=O)n1 [Example 21]

>  <Pre-emergence activity GR80, STEME>
[empty]

$$$$
>  <compound>
CCCN(CC)C(=O)n1cnc(S(=O)(=O)C(F)(F)C(F)(F)Br)n1 [Example 75]

>  <Pre-emergence activity GR80, STEME>
30 g/ha

$$$$
>  <compound>
CCN(CC)C(=O)n1cnc(S(=O)(=O)C(F)(F)SCC(=O)OC)n1 [Example 11]

>  <Pre-emergence activity GR80, STEME>
[empty]

$$$$
>  <compound>
CCSC(F)(F)S(=O)(=O)c1ncn(C(=O)N(C)OC)n1 [Example 57]

>  <Pre-emergence activity GR80, STEME>
30 g/ha

$$$$
>  <compound>
CCSC(F)(F)S(=O)(=O)c1ncn(C(=O)N2CCCC2)n1 [Example 47]

>  <Pre-emergence activity GR80, STEME>
30 g/ha

$$$$
>  <compound>
C#CCN(C)C(=O)n1cnc(S(=O)(=O)C(F)(F)Br)n1 [Example 42]

>  <Pre-emergence activity GR80, STEME>
[empty]

$$$$
>  <compound>
CCSC(F)(F)S(=O)(=O)c1ncn(C(=O)N(CC)CC)n1 [Example 8]

>  <Pre-emergence activity GR80, STEME>
[empty]

$$$$
>  <compound>
CN(C(=O)n1cnc(S(=O)(=O)C(F)(F)Br)n1)C1CCCCC1 [Example 43]

>  <Pre-emergence activity GR80, STEME>
300 g/ha

$$$$
>  <compound>
COCCN(C)C(=O)n1cnc(S(=O)(=O)C(F)F)n1 [Example 29]

>  <Pre-emergence activity GR80, STEME>
300 g/ha

$$$$
>  <compound>
CCN(CC)C(=O)n1cnc(S(=O)(=O)C(F)(F)C(F)(F)SC)n1 [Example 14]

>  <Pre-emergence activity GR80, STEME>
300 g/ha

$$$$
>  <compound>
CCN(CC)C(=S)n1cnc(S(=O)(=O)C(F)(F)Br)n1 [Example 46]

>  <Pre-emergence activity GR80, STEME>
300 g/ha

$$$$
>  <compound>
O=C(N1CCCC1)n1cnc(S(=O)(=O)C(F)(F)Cl)n1 [Example 83]

>  <Pre-emergence activity GR80, STEME>
300 g/ha

$$$$
>  <compound>
C=CCN(C)C(=O)n1cnc(S(=O)(=O)C(F)(F)SCC)n1 [Example 53]

>  <Pre-emergence activity GR80, STEME>
[empty]

$$$$
>  <compound>
CON(C)C(=O)n1cnc(S(=O)(=O)C(F)(F)C(F)(F)Br)n1 [Example 81]

>  <Pre-emergence activity GR80, STEME>
30 g/ha

$$$$
>  <compound>
CCSC(F)(F)S(=O)(=O)c1ncn(C(=O)N(C)c2ccccc2)n1 [Example 50]

>  <Pre-emergence activity GR80, STEME>
300 g/ha

$$$$
>  <compound>
CCN(CC)C(=O)n1cnc(S(=O)(=O)C(F)(F)Cl)n1 [Example 3]

>  <Pre-emergence activity GR80, STEME>
30 g/ha

$$$$
>  <compound>
CCN(CC)C(=O)n1cnc(S(=O)(=O)C(F)(F)SCCO)n1 [Example 12]

>  <Pre-emergence activity GR80, STEME>
300 g/ha

$$$$
